Assay overview: Plasma pharmacokinetics of CR665 after single IV infusion in human subjects
Stated conditions: male, human, plasma, iv, 0.24 mg/kg, Vz, males, 1 hour IV infusion, geometric mean
Experimental: This clinical study was conducted as a double blind, placebo controlled, ascending single intravenous (IV) dose, sequential group study. […] Plasma and urine samples for the analysis of CR665 and N oxide metabolite were prepared by solid phase extraction. The centrifuged eluates were quantified by liquid chromatography with tandem mass spectrometric detection (LC MS/MS). The lower limit of quantification was 1 ng/mL. […]
Structures can show the parent of a compound that is named as a salt. Non-standard residues stand in square brackets, D forms with d. Residues, ends and D or L forms follow the SMILES beside them. *: point of attachment. NH(4-picolyl) = c1cc(CN*)ccn1; dNle = CCCC[C@@H](N)C(=O)O
Recorded endpoint: Vd (L)

Molecule	Recorded endpoint	Quantity unit	Observed measurement
CCCC[C@@H](NC(=O)[C@@H](Cc1ccccc1)NC(=O)[C@H](N)Cc1ccccc1)C(=O)N[C@H](CCCNC(=N)N)C(=O)NCc1ccncc1 [CR665, acetate salt] (H-[dF][dF][dNle][dR]-{NH(4-picolyl)})	Vd	L	74.6
